# Species: Rattus norvegicus
# Method Notes: DrugMatrix - Regimen: Daily Repeat
# Assay type: toxicity, organism-based, Sprague-Dawley
# Design: regimen Daily Repeat, gender Male, age 6-8 weeks
# Settings: in vivo, po, 0 mg/kg, 72 h, tissue Plasma, route oral GAVAGE, dose level Control, time 3 day, vehicle .5 % CMC
Endpoint: URIC ACID (mg/dL)
The reply should be a number in mg/dL, with the unit left off.

Here's what some known entries look like.
Consider the compound shown here: Cc1c(-c2ccccc2)oc2c(C(=O)OCCN3CCCCC3)cccc2c1=O [FLAVOXATE] What is its recorded URIC ACID?
1.3

Consider the compound shown here: O=c1[nH]cc(F)c(=O)[nH]1 What is its recorded URIC ACID?
1.7

Consider the compound shown here: CN1CCC[C@@H]1CCO[C@](C)(c1ccccc1)c1ccc(Cl)cc1 What is its recorded URIC ACID?
1.28

---
Consider the compound shown here: CC(/C=C1\SC(=S)N(CC(=O)O)C1=O)=C\c1ccccc1 What is its recorded URIC ACID?
1.28
